B1: PHTF1 (parent)
chain: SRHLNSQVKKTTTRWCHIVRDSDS

# Variants of: B1
# test_name: protein stability index of a GFP-peptide fusion (GPS, HEK-293T) (PSI 1-6); higher = more stable;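 also: lentivirally expressed fusions sorted by FACS into six bins by GFP to DsRed ratio, PSI derived from sequencing read proportions per bin multiplied by bin number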
# condition_details: c terminus: a fixed tail appended
reported_endpoint: protein stability index
Give bare numbers.

Here are 6 variants together with their reported answers.
Return reported protein stability index; argument: "N5H"
2.56

Return reported protein stability index; argument: "H3E"
2.52

Return reported protein stability index; argument: "H3K"
2.02

Return reported protein stability index; argument: "S22M"
2.15

Return reported protein stability index; argument: "T12H"
1.31

Return reported protein stability index; argument: "K9H"
1.81

Hey, quick one: what's protein stability index for each of these?
1. Q7W
2. R14Y
3. T13G
4. K9C
5. S1V
6. K10V

1. 2.84
2. 2.05
3. 2.75
4. 2.13
5. 1.84
6. 2.71

Hey, quick one: what's protein stability index for each of these?
1. S6F
2. H17T
3. K9L
4. S1F

[1.45, 1.91, 2.21, 1.76]

Hey, quick one: what's protein stability index for each of these?
1. R14H
2. K10R
3. W15S
4. T13E
5. K9R
6. S24D

2.17
1.8
3.84
2.94
2.16
2.75

Hey, quick one: what's protein stability index for each of these?
1. N5V
2. Q7F
3. Q7E
4. S1T
5. H3D
6. D23N
7. S22W

1.29
1.22
2.4
2.09
1.58
1.99
2.08
